tgt: Estrogen Receptor β (Homo sapiens)
Sequence (Q92731 whole entry): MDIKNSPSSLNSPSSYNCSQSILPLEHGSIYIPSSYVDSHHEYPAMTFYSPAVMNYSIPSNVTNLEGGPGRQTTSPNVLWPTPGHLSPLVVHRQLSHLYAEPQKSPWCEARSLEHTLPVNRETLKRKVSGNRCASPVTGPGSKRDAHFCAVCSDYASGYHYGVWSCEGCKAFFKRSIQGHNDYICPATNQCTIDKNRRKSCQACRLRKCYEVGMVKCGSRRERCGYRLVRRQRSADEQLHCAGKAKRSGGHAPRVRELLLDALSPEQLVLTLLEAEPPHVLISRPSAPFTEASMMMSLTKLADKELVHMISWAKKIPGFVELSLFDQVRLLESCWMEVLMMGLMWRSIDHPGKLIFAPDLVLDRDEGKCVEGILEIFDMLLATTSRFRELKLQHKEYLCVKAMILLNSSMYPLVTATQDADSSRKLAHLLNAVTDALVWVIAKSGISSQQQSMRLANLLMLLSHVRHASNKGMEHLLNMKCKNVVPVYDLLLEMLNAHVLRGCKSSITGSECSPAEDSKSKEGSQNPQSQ
run description: Estrogen Receptor β reporter counterscreen (Indigo Biosciences kit)
condition notes: receptor agonist at ~EC80 for antagonist potency
pIC50: −log10 of the molar value.
recorded endpoint: pIC50

>>> df
                                 cpd_smiles  recorded_endpoint  recorded_result
0  CC1(C)C(=O)N(c2ccc(C(F)(F)F)cc2)N=C1CCCc1ccc(OC2(C(=O)O)CCC2)cc1              pIC50             4.44

* * *

tgt: human PPARα (Homo sapiens, UniProt Q07869)
Construct: host or cells: proprietary non-human mammalian cells
Sequence (Q07869 1-468): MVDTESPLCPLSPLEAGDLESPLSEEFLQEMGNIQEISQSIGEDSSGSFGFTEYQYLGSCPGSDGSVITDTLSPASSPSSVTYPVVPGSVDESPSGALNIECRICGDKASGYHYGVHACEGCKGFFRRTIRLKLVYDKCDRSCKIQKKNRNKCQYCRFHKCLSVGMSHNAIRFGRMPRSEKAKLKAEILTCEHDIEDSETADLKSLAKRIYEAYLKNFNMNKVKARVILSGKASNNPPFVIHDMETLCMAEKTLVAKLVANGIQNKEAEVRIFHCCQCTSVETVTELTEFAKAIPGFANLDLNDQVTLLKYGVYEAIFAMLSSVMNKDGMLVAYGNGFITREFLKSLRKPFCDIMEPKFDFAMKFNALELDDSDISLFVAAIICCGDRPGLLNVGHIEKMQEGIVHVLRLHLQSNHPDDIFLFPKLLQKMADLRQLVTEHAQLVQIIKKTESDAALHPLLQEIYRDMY
run description: Human PPARα Reporter Assay (luciferase, Indigo Biosciences)
Assay type: cell-based
condition notes: antagonism; luciferase reporter cells, overnight incubation; read-out: PPARα IC50
Procedure: Human PPARα Reporter Assay The screening of test compounds for agonist or antagonist activities against human PPARα receptors was performed using a commercial kit, Human PPARα Reporter Assay System (Indigo Biosciences, Cat. #IB00111). This nuclear receptor assay system utilizes proprietary non-human mammalian cells engineered to provide constitutive, high-level expression of Human PPARα. […]
pIC50: −log10 of the molar value.
Returns TRUE if the recorded pIC50 is greater than or equal to 8, and FALSE otherwise.

>>> df
                                 cpd_smiles  category_label
0  CC(C)(Oc1ccc(CCCC2=NN(c3ccc(C(F)(F)F)cc3)C(=O)C2(C)C)cc1)C(=O)C(F)(F)F           FALSE
1  CC1(C)C(=O)N(c2ccc(C(F)(F)F)cc2)N=C1CCCc1ccc(OC2(C(=O)O)CCCC2)cc1            TRUE
2  CC1(C)C(=O)N(c2ccc(C(F)(F)F)cc2)N=C1CCCc1ccc(OC2(C(=O)O)CCC2)cc1            TRUE
3  Cc1ccc(N2N=C(CCCc3ccc(OC(C)(C)C(=O)O)cc3)C3(CCCC3)C2=O)cc1C(F)(F)F            TRUE

Measured values drawn from patent US9862708B2 for this set.
